Reference source: PubChem BioAssay (NCI)

System: IGROV1 ovarian
Test: NCI-60 one-dose screen, 48 h (100 = growth as untreated, 0 = no growth, -100 = all killed)
Details: 10 µM unless noted
Compounds without any hit were thinned out: in the full panel of roughly 83,000, 20% have a hit.
Examples of compounds with documented growth follow.
Report as a plain number; the unit % is understood.

See these solved cases before continuing.
Dear colleague, I am looking for the recorded growth of the following compound: `CO[C@H]1C[C@@H]2CC[C@@H](C)[C@@](O)(O2)C(=O)C(=O)N2CCCC[C@H]2C(=O)O[C@H]([C@H](C)C[C@@H]2CC[C@@H](OC(=O)C(C)(CO)CO)[C@H](OC)C2)CC(=O)[C@H](C)/C=C(\C)[C@@H](O)[C@@H](OC)C(=O)[C@H](C)C[C@H](C)\C=C/C=C/C=C/1C`
11.4

Dear colleague, I am looking for the recorded growth of the following compound: `CC/C(=C(\c1ccc(OCCN2CCCCCCC2)cc1)c1ccc(OC(=O)C2CCCCC2)cc1)c1ccc(Cl)cc1`
103

Let us move to another entry and its growth.
Dear colleague, I am looking for the recorded growth of the following compound: `O=C(O)c1ccc2c(c1)nc(Nc1cccc(Cl)c1)c1ccncc12`
-22.2

* * *

Tested on: HT29 colon
Test: NCI-60 one-dose screen, 48 h (100 = growth as untreated, 0 = no growth, -100 = all killed)
Conditions: 10 µM unless noted
The panel holds about 83,000 compounds, 20% with a hit somewhere; the sample as a whole holds those more often.
Examples of compounds with documented growth follow.
Report as a plain number; the unit % is understood.

See these solved cases before continuing.
Dear colleague, I am looking for the recorded growth of the following compound: CC[C@@H]1C(=O)N(C)c2cnc(Nc3ccc(C(=O)NC4CCC(N5CCN(CC6CC6)CC5)CC4)cc3OC)nc2N1C(C)C (some centres not stated)
-25.9

Dear colleague, I am looking for the recorded growth of the following compound: `Cc1cc2c(-c3nc4ccccn4c3N)c(O)c(O)cc2c(O)c1-c1c(C)cc2c(-c3nc4ccccn4c3N)c(O)c(O)cc2c1O`
8.01

Others:
Dear colleague, I am looking for the recorded growth of the following compound: `CN1CCC(COc2cnc(-c3cccc(Cn4nc(-c5cccc(C#N)c5)ccc4=O)c3)nc2)CC1`
-38.5

Dear colleague, I am looking for the recorded growth of the following compound: `O=C(Cc1ccccc1)Nc1nnc(NC2CCN(c3nnc(NC(=O)Cc4ccccc4)s3)CC2)s1`
94.4

Dear colleague, I am looking for the recorded growth of the following compound: `COc1cnc2c(c1)C(=O)c1c-2n(CCCN2CCOCC2)c(=O)c2cc(Cl)ccc12`
8.04

Dear colleague, I am looking for the recorded growth of the following compound: COC(=O)[C@H](Cc1ccc(O)cc1)NC(=O)[C@@H](OC)[C@@H]1Cc2cc3cc(OC4CC(OC5CC(O)C(O)C(C)O5)C(O)C(C)O4)c(C)c(O)c3c(O)c2C(=O)[C@H]1OC1CC(OC2CC(OC3CC(C)(O)C(O)C(C)O3)C(O)C(C)O2)C(O)C(C)O1 (some centres not stated)
3.68

Dear colleague, I am looking for the recorded growth of the following compound: Cc1nn(-c2ccccc2)c2c1N=c1s/c(=C\c3cn(-c4ccccc4)nc3-c3ccc(Cl)cc3)c(=O)n1C(C)N2 (configuration not stated)
94.3

* * *

Examples of compounds with documented growth follow.
System: SF-539 CNS
Assay: NCI-60 one-dose screen, 48 h (100 = growth as untreated, 0 = no growth, -100 = all killed)
Settings: 10 µM unless noted
This is part of a sample that, as a whole, favours compounds with a hit. Of some 83,000 tested, about 20% had one in any assay. Calls of active or inactive are those of the source. The calls were made as follows: active = growth percent below 10; inactive = the rest.

See these solved cases before continuing.
Dear colleague, I am looking for the recorded growth of the following compound: `CCN(CCN(C)C)C(=O)CNCc1cc(C(N)=O)ccn1`
105% (inactive)

Dear colleague, I am looking for the recorded growth of the following compound: `Cc1ccc(N)cc1CN1C(=O)c2ccccc2C1=O`
107% (inactive)

Others:
Dear colleague, I am looking for the recorded growth of the following compound: `CN1CCN(CCOc2cc(OC3CCOCC3)c3c(Nc4c(Cl)ccc5c4OCO5)ncnc3c2)CC1`
60% (inactive)

Dear colleague, I am looking for the recorded growth of the following compound: `Cc1cc(O)cc(-c2c(-c3ccnc(-c4cccnc4)c3)cnn2C)c1`
42.7% (inactive)

Dear colleague, I am looking for the recorded growth of the following compound: `CCOc1ccc(N=C(C)Nc2ccc(OCC)cc2)cc1`
118% (inactive)

Dear colleague, I am looking for the recorded growth of the following compound: Cc1cccc(C)c1N1C(c2ccccc2)=NNC12C=CC(=O)c1c(O)cccc12 (stereo unspecified)
67.1% (inactive)

* * *

System: HT29 colon
Assay: NCI-60 one-dose screen, 48 h
Conditions: 10 µM unless noted
About 83,000 compounds went through this panel and 20% of them were active in at least one assay; those are over-represented in the sample as a whole. Active and inactive are the calls of the source. The calls were made as follows: active = growth percent below 10; inactive = the rest.
Use one of these outcomes when replying: active, inactive

Reference set (5 entries):
Record lookup: outcome of this test for `C=CC(=O)N1CCC[C@H](n2c(=O)n(-c3ccc(Oc4ccccc4)cc3)c3c(N)ncnc32)C1` ?
inactive

Record lookup: outcome of this test for CC(C)(C)OC(=O)N1CCC(O)[C@@H](O[Si](c2ccccc2)(c2ccccc2)C(C)(C)C)[C@H]1/C=C/c1ccccc1 (some centres not stated) ?
inactive

Record lookup: outcome of this test for `Cc1c(Cn2c(C)nc3c(C(=O)O)cc(N4CCOCC4)cc32)cccc1C(F)(F)F` ?
inactive

Record lookup: outcome of this test for `COc1cnc2c(c1)C(=O)c1c-2n(CCCn2ccnc2)c(=O)c2cc(Cl)ccc12` ?
active

Record lookup: outcome of this test for `COc1ccc(Nc2ncccc2NC(=O)c2cn(Cc3cccc(Oc4ccccc4)c3)nn2)cc1` ?
inactive

Others:
Record lookup: outcome of this test for `O=C(c1ccc(F)c(F)c1Nc1ccc(I)cc1F)N1CC(O)([C@@H]2CCCCN2)C1` ?
active

Record lookup: outcome of this test for `CCN(CC)c1cc2oc3cc(N)cc(=N)c-3nc2cc1C` ?
inactive

Record lookup: outcome of this test for COC1CCC(N2C(=O)CNc3ncc(-c4ccc(C(C)(C)O)nc4)nc32)CC1 (configuration not stated) ?
active

* * *

System: NCI-H226 lung
Assay: NCI-60 one-dose screen, 48 h (100 = growth as untreated, 0 = no growth, -100 = all killed)
Settings: 10 µM unless noted
The panel holds about 83,000 compounds, 20% with a hit somewhere; the sample as a whole holds those more often.
Examples of molecules with documented growth follow.
Report as a plain number; the unit % is understood.

Dear colleague, I am looking for the recorded growth of the following molecule: `COc1ccc(Cl)c(Nc2nc3ccccc3nc2NS(=O)(=O)c2cccc(NC(=O)C(C)(C)N)c2)c1`
71.4

Dear colleague, I am looking for the recorded growth of the following molecule: N#Cc1c(-c2ccc(C(F)(F)F)cc2)c(F)c(NCCC2CCC(O)C2)n2c1nc1ccccc12 (stereo not given)
69.2

Dear colleague, I am looking for the recorded growth of the following molecule: `COc1cc(C(=O)NNC(=O)c2ccc(NC(=O)CCl)cc2)cc(OC)c1OC`
95.5

Dear colleague, I am looking for the recorded growth of the following molecule: `C[C@@H](C[C@H](CCO)c1cc(C(F)(F)F)cc(C(F)(F)F)c1)c1ccc2ccccc2c1`
91.1

Dear colleague, I am looking for the recorded growth of the following molecule: O=C1CC(c2cccc(F)c2)c2c(n[nH]c2-c2ccc(Cl)cc2)N1 (stereo not given)
80.7

Dear colleague, I am looking for the recorded growth of the following molecule: `CC(=O)Nc1cccc(-n2c(=O)n(C3CC3)c(=O)c3c(Nc4ccc(I)cc4F)n(C)c(=O)c(C)c32)c1`
49.5

Dear colleague, I am looking for the recorded growth of the following molecule: `Nc1c2c(c(O)c3c1=C(CO)C=N3)=NCCS2`
-85.9

Dear colleague, I am looking for the recorded growth of the following molecule: `ClCc1ccc(-c2ccc(Cn3cnc4c(Cl)nc(Cl)nc43)cc2)cc1`
68.3

Dear colleague, I am looking for the recorded growth of the following molecule: `Cc1ccc2oc(=O)cc(-c3cc(-c4cc5ccccc5oc4=O)nc(N)c3C#N)c2c1`
93.3

Others:
Dear colleague, I am looking for the recorded growth of the following molecule: `COc1cc2ncnc3c2cc1OCCCCCN(C)Cc1ccc(Br)cc1N3`
88.3

* * *

Test system: NCI-H226 lung
Assay: NCI-60 one-dose screen, 48 h
Settings: 10 µM unless noted
Compounds without any hit were thinned out: in the full panel of roughly 83,000, 20% have a hit. Active and inactive are the calls of the source. The calls were made as follows: active = growth percent below 10; inactive = the rest.
Use one of these outcomes when replying: active, inactive

Reference set (3 entries):
Record lookup: outcome of this test for Cc1nn(-c2nc3ccccc3[nH]2)c2c1C(c1ccc(O)cc1)CC(=O)N2 (centres undefined) ?
inactive

Record lookup: outcome of this test for `COc1cc(Nc2ncc(F)c(Nc3ccc4c(n3)N(COP(=O)(O)O)C(=O)C(C)(C)O4)n2)cc(OC)c1OC` ?
active

Record lookup: outcome of this test for `COc1cc(OC)c(/C=C/S(=O)(=O)Cc2ccc(OC)c(NCC(=O)O)c2)c(OC)c1` ?
inactive

Others:
Record lookup: outcome of this test for `CN(C)C/C=C/C(=O)Nc1cc2c(Nc3ccc(F)c(Cl)c3)ncnc2cc1O[C@H]1CCOC1` ?
active

Record lookup: outcome of this test for `C[C@@H](N)c1ccc(C(=O)Nc2ccnc3[nH]ccc23)cc1` ?
inactive

Record lookup: outcome of this test for `O=C(O)c1ccc(Nc2ncc3c(n2)-c2ccc(Cl)cc2C(c2c(F)cccc2F)=NC3)cc1` ?
inactive

Record lookup: outcome of this test for `CC(C)OP(=O)(CCC(=O)c1c[nH]c2ccccc12)OC(C)C` ?
inactive

Record lookup: outcome of this test for CC(=O)CC1CCCC1c1ccc2ccccc2c1 (centres undefined) ?
inactive

Record lookup: outcome of this test for `C=CC(=O)Nc1cccc(Oc2nc(Nc3ccc(N4CCN(C)CC4)cc3)nc3ccsc23)c1` ?
active

Record lookup: outcome of this test for `CCCS(=O)(=O)Nc1ccc(F)c(C(=O)c2c[nH]c3ncc(-c4ccc(Cl)cc4)cc23)c1F` ?
inactive
